# Measured Target: Recombinant full-length human IDO1 (Homo sapiens)
# Construct: Recombinant full-length human IDO1 with a N-terminal hexahistidine tag; hexahistidine (His6) (N); made in house; host or cells: E. coli
# Sequence (P14902 whole entry): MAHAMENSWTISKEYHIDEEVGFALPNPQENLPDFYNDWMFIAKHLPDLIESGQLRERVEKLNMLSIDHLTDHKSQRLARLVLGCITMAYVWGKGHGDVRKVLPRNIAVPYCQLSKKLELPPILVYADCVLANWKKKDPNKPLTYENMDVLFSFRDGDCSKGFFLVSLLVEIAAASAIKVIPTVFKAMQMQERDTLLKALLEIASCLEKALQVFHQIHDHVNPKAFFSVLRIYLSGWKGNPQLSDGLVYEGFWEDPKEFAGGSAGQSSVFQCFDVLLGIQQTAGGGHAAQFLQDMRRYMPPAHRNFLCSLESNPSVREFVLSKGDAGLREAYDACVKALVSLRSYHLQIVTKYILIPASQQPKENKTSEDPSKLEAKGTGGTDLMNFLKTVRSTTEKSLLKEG
# Assay Remarks: IDO1 enzymatic assay (NFK quantified by LCMS)
# Format: biochemical
# Condition Notes: 2 nM enzyme, 5 μM L-tryptophan, pH6.5, 30 minutes pre-incubation at RT; mean values when measured multiple times; read-out: hIDO activity (IC50 in nM)
Endpoint Label: IC50 (nM)

Compound: CC1(c2sc3cncn3c2C(O)c2cn(-c3ccc(OCCCO)c(Cl)c3)nn2)CC1 (racemic)
IC50, nM: 13.7
//
Compound: CCc1sc2cncn2c1C(O)c1cn(-c2ccc(C(=O)NCc3ccco3)cc2)nn1 (racemic)
IC50, nM: 8.09
//
Compound: COc1ncc(-n2cc(C(O)c3c(C4CC4)sc4cncn34)nn2)c(OC)n1 (racemic)
IC50, nM: 81.7
//
Compound: COc1ncc(-n2cc(C(O)c3c(C4CC4)sc4cncn34)nn2)cc1C (racemic)
IC50, nM: 55.9
//
Compound: CCc1sc2cncn2c1C(O)c1cn(-c2ccc(C(N)=O)cc2)nn1 (racemic)
IC50, nM: 12.3
//
Compound: Cc1sc2cncn2c1C(O)c1cn(-c2ccc(OCC3CC3)cc2)nn1 (racemic)
IC50, nM: 27.7

(P) COc1ccc(-n2cc(C(O)c3c(-c4ccccc4F)sc4cncn34)nn2)cc1 (racemic)
(Q) O[C@@H](c1cn(-c2ccc(OCC3(F)COC3)cc2)nn1)c1c(C2CC2)sc2cncn12 [Example 145a]
Lower IC50: P or Q ? Write the label of whichever entry you select.
Q
(Q: 8.77 nM, P: 88.8 nM)
